system: rat liver microsomes (RLM); assay: Metabolic stability in rat liver microsomes (RLM); conditions: RLM assay; values in square brackets are within 10% (assay's accuracy), no deuteration effect
Exercise: state measured RLM, % (half-life as % vs. the related nondeuterated compound) for each of the compounds provided.

INSERT INTO measurements (input_smiles, measured_on, measured_value) VALUES
  ('[2H]C([2H])(c1c[nH]c2cccc(OC)c12)C([2H])([2H])N(C)C', 'rat liver microsomes (RLM)', '190%');

Given item "[2H]C([2H])(NC)C([2H])([2H])c1c[nH]c2cccc(O)c12" , the value recorded as its RLM, % (half-life as % vs. the related nondeuterated compound) is 160%

----------
target: hrMAO-A (Homo sapiens, UniProt P21397); construct: purchased XenoTech Lot #8213001; assay: Metabolic stability in the presence of hrMAO-A; format: in vitro ADME; details: MAO-A assay; last time point 120 min
Sequence (P21397 whole entry): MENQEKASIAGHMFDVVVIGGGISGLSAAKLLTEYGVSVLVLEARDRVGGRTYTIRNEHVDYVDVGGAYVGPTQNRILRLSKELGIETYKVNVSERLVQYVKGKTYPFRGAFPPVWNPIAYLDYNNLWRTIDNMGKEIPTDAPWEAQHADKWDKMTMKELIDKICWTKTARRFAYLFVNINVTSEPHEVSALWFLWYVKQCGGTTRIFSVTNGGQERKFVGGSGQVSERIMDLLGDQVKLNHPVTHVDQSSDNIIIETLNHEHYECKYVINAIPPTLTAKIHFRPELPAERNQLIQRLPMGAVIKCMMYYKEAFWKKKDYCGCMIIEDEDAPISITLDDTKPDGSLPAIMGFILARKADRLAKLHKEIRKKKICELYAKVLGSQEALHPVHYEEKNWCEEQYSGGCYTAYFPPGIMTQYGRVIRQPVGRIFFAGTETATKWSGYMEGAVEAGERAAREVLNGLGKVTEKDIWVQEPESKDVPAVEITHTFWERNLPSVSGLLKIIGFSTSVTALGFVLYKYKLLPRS
assay metric: MAO, %, class symbol (metabolized or not)

INSERT INTO measurements (compound, measured_value) VALUES
  ('CCN(C)CCc1c[nH]c2cccc(OC)c12 [reference compound]', 'R'),
  ('CCN(C)CCc1c[nH]c2ccc(O)cc12 [reference compound]', 'R'),
  ('CCNCCc1c[nH]c2ccccc12 [reference compound]', 'R'),
  ('COc1ccc2[nH]cc(CCN(C)C)c2c1 [5-MeO-DMT, reference compound]', 'R');

Report MAO, %, class symbol (metabolized or not) for every entry below.
1. CCN(C)CCc1c[nH]c2ccc(OC)cc12 [reference compound]
2. CNCCc1c[nH]c2ccccc12 [reference compound]
3. CNCCc1c[nH]c2cccc(O)c12 [reference compound]
4. CCN(C)CCc1c[nH]c2ccccc12 [reference compound]

Result:
R
R
R
R

Report MAO, %, class symbol (metabolized or not) for every entry below.
1. CN(C)CCc1c[nH]c2ccc(O)cc12 [reference compound]
2. COc1cccc2[nH]cc(CCN(C)C)c12 [reference compound]

Result:
["R", "R"]
